Overview of reported relative β-galactosidase activity, inducer atc across a group of molecules:
- Tested on: tetA promoter (PtetA)-lacZ reporter in E. coli KM3
- Type: cell-based
- condition.description: Table 4; anhydrotetracycline 0.4 μM; 48 hrs at 30° C.
recorded.endpoint: relative β-galactosidase activity, inducer atc

molecule	numeric.value
L1-38: library L1 hit, sulfonylurea-responsive TetR(B) variant (protein, Sulfonylurea responsive repressor L1-38) MGSRLDKSKVINSALELLNEVGIEGLTTRKLAQKLGVEQPTLYWHVKNKRALLDALAIEMADRHHTHFCPLEGESWQDFLRNNAKSMRCALLSHRDGAKVWLGTAWTEKQYETTENMLAFLCQQGFSLENALYAWRAVTMFTLGCVLRDQEWQVAKEERETPTTDSMPPLLRQALELGDHQGAEPAFLFGLELIICGLEKQLKCESGS	6.4
L1-9: library L1 hit, sulfonylurea-responsive TetR(B) variant, parent of L2 and L4 (protein, Sulfonylurea responsive repressor L1-09) MGSRLDKSKVINSALELLNEVGIEGLTTRKLAQKLGVEQPTLYWHVKNKRALLDALAIEMLDRHATHFCPLEGESWQDFLRNNAKSMRCALLSHRDGAKVCLGTGFTEKQYETAENSLAFLCQQGFSLENALYAMQAVCIFTLGCVLLDQELQVAKEERETPTTDSMPPLLRQALELKDHQGAEPAFLFGLELIICGLEKQLKCESGS	0.3
L1-29: library L1 hit, sulfonylurea-responsive TetR(B) variant, SEQ ID NO: 10 (protein, Sulfonylurea responsive repressor L1-29) MGSRLDKSKVINSALELLNEVGIEGLTTRKLAQKLGVEQPTLYWHVKNKRALLDALAIEMMDRHQTHFCPLEGESWQDFLRNTAKSMRCALLSHRDGAKVWLGTRWTEKQYETPENMLAFLCQQGFSLENALYAWSAVCNFTLGCVLSDQERQVAKEERETPTTDSMPPLLRQAWELSDHQGAEPAFLFGLELIICGLEKQLKCESGS	0.0
